For each entry below, report its response, % of control value.
# SYSTEM_TESTED: Hypoxia-inducible factor 1-alpha (Homo sapiens) (UniProt Q16665)
# Sequence (Q16665 whole entry, looked up): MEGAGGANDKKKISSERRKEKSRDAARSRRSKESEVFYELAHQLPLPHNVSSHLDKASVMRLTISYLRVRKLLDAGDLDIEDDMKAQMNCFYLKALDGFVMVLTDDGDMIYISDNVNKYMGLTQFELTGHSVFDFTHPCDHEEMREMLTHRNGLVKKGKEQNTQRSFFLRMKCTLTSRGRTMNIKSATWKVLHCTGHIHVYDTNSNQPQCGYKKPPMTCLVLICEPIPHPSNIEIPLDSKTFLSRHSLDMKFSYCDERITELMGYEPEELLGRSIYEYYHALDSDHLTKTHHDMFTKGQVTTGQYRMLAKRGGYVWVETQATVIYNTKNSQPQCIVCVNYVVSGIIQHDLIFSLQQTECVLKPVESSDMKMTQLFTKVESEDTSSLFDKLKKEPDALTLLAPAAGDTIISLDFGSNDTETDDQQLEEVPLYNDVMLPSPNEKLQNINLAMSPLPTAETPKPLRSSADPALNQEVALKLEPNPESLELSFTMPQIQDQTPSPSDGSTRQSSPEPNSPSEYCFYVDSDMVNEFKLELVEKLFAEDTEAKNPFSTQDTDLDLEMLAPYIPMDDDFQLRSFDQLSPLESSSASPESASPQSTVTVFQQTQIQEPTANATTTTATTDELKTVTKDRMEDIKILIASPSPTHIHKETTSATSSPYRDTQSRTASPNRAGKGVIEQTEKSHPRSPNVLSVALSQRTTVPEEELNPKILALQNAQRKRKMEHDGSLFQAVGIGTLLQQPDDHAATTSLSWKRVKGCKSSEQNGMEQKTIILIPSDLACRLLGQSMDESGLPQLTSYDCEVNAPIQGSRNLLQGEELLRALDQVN
# EXPERIMENT_NOTES: Inhibition of HIF-1alpha in human H1299 cells at 10 nM after 72 hrs subsequently incubated for 12 hrs under hypoxic conditions by Western blot assay relative to control
# Assay type: cell-based
# STATED_CONDITIONS: values are per cent of control
The reply should contain only the number, in %.

Supply measured response, % of control of CO/N=C(/Cc1ccc(OC)c(OC)n1)c1ccc2c(c1OC)C=CC(C)(C)O2 in your reply.
74

Supply measured response, % of control of COc1ccc([C@H](C)C(=O)c2ccc3c(c2OC)C=CC(C)(C)O3)nc1OC in your reply.
88.4

Supply measured response, % of control of COc1ccc(C(C)C(OC(=O)C2CC2)c2ccc3c(c2OC)C=CC(C)(C)O3)c(F)c1OC (configuration not stated) in your reply.
81.6

Supply measured response, % of control of COc1ccc(C(C)C(OC(N)=O)c2ccc3c(c2OC)C=CC(C)(C)O3)c(F)c1OC (configuration not stated) in your reply.
80.9

Supply measured response, % of control of COc1ccc([C@H](C)[C@@H](OC(C)=O)c2ccc3c(c2OC)C=CC(C)(C)O3)c(F)c1OC (relative stereo) in your reply.
63.2

Supply measured response, % of control of COc1ccc(C(C)C(OC(=O)N(C)C)c2ccc3c(c2OC)C=CC(C)(C)O3)c(F)c1OC (configuration not stated) in your reply.
93.6

Supply measured response, % of control of COc1cc2c(cc1OC)[C@@H]1C(=O)c3ccc4c(c3O[C@@H]1CO2)C=CC(C)(C)O4 in your reply.
94
